# credit: the supplement of paper PMC11061612

# Test system: NCI-H1703 (Squamous Cell Lung Carcinoma)
# Test: combination Emax (second highest fraction inhibited in the dose matrix, 72 h); higher = more inhibition; extreme values may be limits of the assay
Readout Name: combination Emax

Molecule	Value
CN(CCO)CC[C@H](CSc1ccccc1)Nc1ccc(S(=O)(=O)NC(=O)c2ccc(N3CCC([C@@H](O)c4ccccc4-c4ccc(Cl)cc4)CC3)cc2)cc1S(=O)(=O)C(F)(F)F [AZD4320] + C1CN(CCC1(C(=O)N[C@@H](CCO)C2=CC=C(C=C2)Cl)N)C3=NC=NC4=C3C=CN4 [Capivasertib] (first compound max 1 µM, 7x7, partner max 3 µM)	0.402
NC1(C(=O)N[C@@H](CCO)c2ccc(Cl)cc2)CCN(c2ncnc3[nH]ccc23)CC1 [Capivasertib] + CCN(CCO)CCCOc1ccc2c(Nc3cc(CC(=O)Nc4cccc(F)c4)[nH]n3)ncnc2c1 [AZD2811] (first compound max 10 µM, 7x7, partner max 1 µM)	0.678

----------
# Test system: NCI-H441 (Lung Adenocarcinoma);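 note: after 72 h of two-drug dosing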
# Test: Bliss excess, mean over the matrix (fraction); higher = more synergy
# Bliss excess per entry

Molecule	Tested System	Bliss excess
CN(CCO)CC[C@H](CSc1ccccc1)Nc1ccc(S(=O)(=O)NC(=O)c2ccc(N3CCC([C@@H](O)c4ccccc4-c4ccc(Cl)cc4)CC3)cc2)cc1S(=O)(=O)C(F)(F)F [AZD4320] + C1CN(CCC1(C(=O)N[C@@H](CCO)C2=CC=C(C=C2)Cl)N)C3=NC=NC4=C3C=CN4 [Capivasertib] (first compound max 1 µM, 7x7, partner max 3 µM)	NCI-H441 (Lung Adenocarcinoma)	-0.0503
C=CCn1c(=O)c2cnc(Nc3ccc(N4CCN(C)CC4)cc3)nc2n1-c1cccc(C(C)(C)O)n1 [AZD1775] + C1CN(CCC1(C(=O)N[C@@H](CCO)C2=CC=C(C=C2)Cl)N)C3=NC=NC4=C3C=CN4 [Capivasertib] (first compound max 3 µM, partner max 3 µM)	NCI-H441 (Lung Adenocarcinoma)	-0.0427
N#Cc1cnc(Nc2cc(NC[C@H]3CNCCO3)c(C(F)(F)F)cn2)cn1 [SRA737] + CCc1c2c(nc3ccc(O)cc13)-c1cc3c(c(=O)n1C2)COC(=O)[C@]3(O)CC [SN-38] (first compound max 10 µM, 7x7, partner max 0.3 µM)	NCI-H441 (Lung Adenocarcinoma)	-0.0258
O=C(c1cc(Cc2n[nH]c(=O)c3ccccc23)ccc1F)N1CCN(C(=O)C2CC2)CC1 [Olaparib] + CC1(C)CCC(CN2CCN(c3ccc(C(=O)NS(=O)(=O)c4ccc(NCC5CCOCC5)c([N+](=O)[O-])c4)c(Oc4cnc5[nH]ccc5c4)c3)CC2)=C(c2ccc(Cl)cc2)C1 [Venetoclax] (first compound max 10 µM, 7x7, partner max 1 µM)	NCI-H441 (Lung Adenocarcinoma)	-0.0407

----------
# System: DMS-53 (Small Cell Lung Carcinoma)
# Test: combination Emax (second highest fraction inhibited in the dose matrix, 72 h); higher = more inhibition; extreme values may be limits of the assay

Molecule	combination Emax
Cc1cc2ncnn2cc1Nc1ncc2c(n1)n(C1CCOCC1)c(=O)n2C [AZD7648] + O=C(c1cc(Cc2n[nH]c(=O)c3ccccc23)ccc1F)N1CCN(C(=O)C2CC2)CC1 [Olaparib] (first compound max 10 µM, 7x7, partner max 10 µM)	0.128
C=CCn1c(=O)c2cnc(Nc3ccc(N4CCN(C)CC4)cc3)nc2n1-c1cccc(C(C)(C)O)n1 [AZD1775] + C1CN(CCC1(C(=O)N[C@@H](CCO)C2=CC=C(C=C2)Cl)N)C3=NC=NC4=C3C=CN4 [Capivasertib] (first compound max 3 µM, partner max 3 µM)	0.619
CN(CCO)CC[C@H](CSc1ccccc1)Nc1ccc(S(=O)(=O)NC(=O)c2ccc(N3CCC([C@@H](O)c4ccccc4-c4ccc(Cl)cc4)CC3)cc2)cc1S(=O)(=O)C(F)(F)F [AZD4320] + CN(C)CCCOc1ccc(-c2ccc3ncc4c(c3c2)n(C2CCOCC2)c(=O)n4C)cn1 [AZD0156] (first compound max 1 µM, 7x7, partner max 1 µM)	0.965
CC1(C)CCC(CN2CCN(c3ccc(C(=O)NS(=O)(=O)c4ccc(NCC5CCOCC5)c([N+](=O)[O-])c4)c(Oc4cnc5[nH]ccc5c4)c3)CC2)=C(c2ccc(Cl)cc2)C1 [Venetoclax] + C=CCn1c(=O)c2cnc(Nc3ccc(N4CCN(C)CC4)cc3)nc2n1-c1cccc(C(C)(C)O)n1 [AZD1775] (first compound max 1 µM, partner max 1 µM)	0.694
COc1cc2c(cc1OCCCCCOc1cc3c(cc1OC)C(=O)N1C=C(C)C[C@H]1C=N3)N=C[C@@H]1CC(C)=CN1C2=O [SG3199] + O=C(c1cc(Cc2n[nH]c(=O)c3ccccc23)ccc1F)N1CCN(C(=O)C2CC2)CC1 [Olaparib] (first compound max 0.001 µM, 7x7, partner max 10 µM)	0.153
COc1nnc2ccc(N3CCC(c4ccc(OCCN5CCN(C)C(=O)[C@H]5C)cc4)CC3)nn12 [AZD5153] + CN(CC[C@H](CSC1=CC=CC=C1)NC2=C(C=C(C=C2)S(=O)(=O)NC(=O)C3=CC=C(C=C3)N4CCC(CC4)[C@H](C5=CC=CC=C5C6=CC=C(C=C6)Cl)O)S(=O)(=O)C(F)(F)F)CCO [AZD4320] (first compound max 1 µM, 7x7, partner max 1 µM)	0.987
NC1(C(=O)N[C@@H](CCO)c2ccc(Cl)cc2)CCN(c2ncnc3[nH]ccc23)CC1 [Capivasertib] + CC(C)n1c(=O)n(C)c2cnc3cc(F)c(-c4ccc(OCCCN5CCCCC5)nc4)cc3c21 [AZD1390] (first compound max 10 µM, 7x7, partner max 0.3 µM)	0.187
